test: Cmax in human plasma expressing CYP2C8*3 allele carrier polymorphism at 80 mg by LC/MS/MS analysis; type: ADME, organism-based; set-up: dose 80 mg
measuredAttribute: Cmax (ng/mL)

[[record]]
structureassmiles = "CCCc1nc2c(C)cc(-c3nc4ccccc4n3C)cc2n1Cc1ccc(-c2ccccc2C(=O)O)cc1"
measured = 494


###

assay: Cmax in human plasma expressing CYP2C8*2 allele carrier polymorphism at 25 to 320 mg by LC/MS/MS analysis; format: ADME, organism-based
measuredAttribute: Cmax (ng/mL)

[[record]]
structureassmiles = "CCCCC(=O)N(Cc1ccc(-c2ccccc2-c2nnn[nH]2)cc1)[C@H](C(=O)O)C(C)C"
endpointunit = "ng/mL"
measured = 6140


This collection of values is drawn from ChEMBL document CHEMBL3526037.
